- Test system: OVCAR-3
- experiment summary: NCI tumour cell line growth inhibition, 48 h
Activity calls are given as the source filed them. Rule as the data show it: active = GI50 up to about 1.1 µM and inactive = higher.
Reported GI50 values for a set of molecules

Field: example entries. Status: answers known.
COc1ccc2c(c1)c(=O)c1c(NCCCN(C)C)ccc3ncn2c31    10.4 µM (inactive)
COc1cccc2c1C(=O)OC2c1cccc2ccccc12 (centres undefined)    74.8 µM (inactive)
C[P+](C)(C)C    > 100 µM (inactive)
COc1cc([C@@H]2C3C(=O)c4ccccc4C3[C@@H](c3cc(OC)c(OC)c(OC)c3)C23Cc2ccccc2C3=O)cc(OC)c1OC (some centres undefined)    > 100 µM (inactive)
O=C1N/C(=N/N=C\c2ccccc2)N/C1=C/c1ccccc1    32.2 µM (inactive)
C1=N\CCOCC/N=C/c2ccccc2OCc2cccc(n2)COc2ccccc2/1    3.51 µM (inactive)

Q. Endpoint output: GI50 of Cc1ccc(S(=O)(=O)n2cc(/C=C/C#N)c(-c3cn(S(=O)(=O)c4ccc(C)cc4)cc3-c3cn(S(=O)(=O)c4ccc(C)cc4)cc3/C=C/C#N)c2)cc1 . Value?
A. > 100 µM (inactive)

Q. Endpoint output: GI50 of CC(=O)OC1C(O)C(C)OC(OC2C(OC(=O)C3CCC4C(C3)OC3(CC(OC(=O)/C=C/c5ccccc5)C(C)CO3)C43CO3)OC(C)C(O)C2OC(C)=O)C1O (centres undefined) . Value?
A. 0.0115 µM (active)

Q. Endpoint output: GI50 of CSC1=N/C(=C\c2cccs2)C(=O)N1CN1CCCCC1 . Value?
A. > 100 µM (inactive)

FYI, the data here is from ChEMBL document CHEMBL1201862.
